Recorded values, source the supplement of paper PMC10567573.

protein stability index by entry:
assay: protein stability index of a GFP-peptide fusion (GPS, HEK-293T) (PSI 1-6); higher = more stable; conditions: treatment: MLN4924 1 uM, 8 h; c terminus: a fixed tail appended;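 also: 24-mer peptide tiles fused after GFP, lentivirally expressed, FACS-sorted into six equal bins by GFP/DsRed ratio, decoded by Illumina sequencing, PSI is the read-weighted mean bin number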
Number only, please.

• RYLAVLESPIPEDKDRRFVFSYFL [EFHC1] = 2.25
• SSREVFTSSSSSSSRQTRPILKEQ [KRT16] = 4.7
• LGRTGLYPSYKVREKIETVKYPTY [FUT8] = 2.51
• QEQLSLSQRQAKELKLEQQEAAER [LRRC45] = 5.67
• PEEVKSLDSNGAGEKSENNSSNSD [BCL2L13] = 5.6

Given the sequence PNFNFNISHQGDYAVLAAEPELQV [AASDHPPT] , what is its reported protein stability index?
3.93

Quick one: protein stability index for LEELGTLNVFQTVSRMRTQRAFSI [PTPN9] ?
2.23

Quick one: protein stability index for SLGELCHPVPLSFEPVKSFFKGLV [TRIM14] ?
1.89

Using the record for GASTSCLLPVQVVTEHPLELIRVE [PCDHGC5] , report its protein stability index.
3.29

====

Quick reference: protein stability index of the listed items.
test: protein stability index of a GFP-peptide fusion (GPS, HEK-293T) (PSI 1-6); higher = more stable; conditions: treatment: MLN4924 1 uM, 8 h; c terminus: a fixed tail appended
Just the number.

The following sequences have reported results that may help.
• SVPASDPRSCSSGPAGPYLLSKKG [PLEKHN1] = 4.69
• VLQSVRELSRSRKLYGQRERVWAL [FCHSD1] = 2.37
• LRLEREEYVLLKALALANSDSVHI [ESRRA] = 2.27
• MAALSRALGPLRTPAPPLWIGLFL = 2.28
• DITVSVSTSFLPELSSVHPPHYFF [FBXO3] = 2.63

Suppose we examine the sequence RPLLQYVQDMGQEDMLLPLAWRIV [CCNC] ; what protein stability index value has been reported?
2.24

Reported protein stability index, sequence AMFPETLDEGMQIPSTQFDAAHPT [CTNNB1] : ____
4.49

Give the measured protein stability index of GTEFMQDPDEEHLKKSSQVPRTEA [PDLIM7] .
5.23

protein stability index for RSEPIRPIDPAAWVSHTAAMTGTF [DVL3] ?
3.04

Quick one: protein stability index for LIYTVMLAFRSGSDNLLVILKRKW [SLC35F2] ?
1.84

Given the entry IGPLETMHLNAEGMLSYCDRYSEG [CRYL1] , report its measured protein stability index.
3.27

Given the entry TTPLQLAIIRERSSCVKILLDHNA [ASB7] , report its measured protein stability index.
2.34

# get_value(readout='protein stability index', item= LFAFMLVYPKEFHLNRGNHEDHMV [PPEF2] )
2.32

What measured protein stability index goes with EVFRFVQSCARAVVPSYIPLVKKH [CPOX] ?
2.37

====

assay: protein stability index of a GFP-peptide fusion (GPS, HEK-293T) (PSI 1-6); higher = more stable; settings: treatment: DMSO; c terminus: a fixed tail appended
PROPERTY LABEL: protein stability index
Provide a numeric answer; units are not to be included.

* AQKALDLPSSGEGLAFFTFPNIAS [HMOX1] | 2.88
* KEYAAKFIKKRRLSSSRRGVSREE [DAPK3] | 4.15
* LHLGLPWRMLRPQLVNSSADNMLE [PPEF2] | 2.87
* KDPRDPEESKEPKEEKQRRRCKPK [GNAS] | 5.37
* EAMLYHNQTAELRELLEFTHMYLQ [P3H4] | 2.48
* SVLVILISIVIFCLETLPEFRDDR [KCNA4] | 2.99
* NDRLYAIGGNHLKGFSHLDVMLVE [KLHL14] | 2.35
* FHLDVEDYLSGVLILASELSRLSV [TSN] | 3.06

Dear colleague, I am looking for the recorded protein stability index of the following sequence: RESERRNHSLARHADILAAVETRL [FBXO28]
3.71

I would be grateful if you could share the reported protein stability index for QNLLREKIMKLPLPESLKAYLTYF [PCMTD1] .
2.49

Bench note: what protein stability index did PEEVKSLDSNGAGEKSENNSSNSD [BCL2L13] show?
5.84

Param item = TVMEKCSDGWWRGSYNGQIGWFPS [NCK2] ; retrieve measured protein stability index.
2.45

Find the recorded protein stability index belonging to PWAVDPAFAERYAPDKTSTVLTRH [PDLIM7] and report it.
3.57

Query: protein stability index; subject: RRERELERRELAVEQGERALERRR [ZBED3]
5.03

====

experiment: protein stability index of a GFP-peptide fusion (GPS, HEK-293T) (PSI 1-6); higher = more stable; conditions: treatment: DMSO; c terminus: a fixed tail appended
// reported protein stability index for each item listed
Answer with a bare number; do not write a unit.

Consider the worked cases shown below.
• MATRSSDWLRRPLGEDNQPETQLF [TLE6] = 3.91
• PSHLLLPPDTVSRTGLEKAAAGAV [SPDEF] = 4.22
• SPPVPGPSAALTTMQLFSKQNPSR [FBXO28] = 4.22
• RVLLTGLHAVADIHCENCKTTLGW [YPEL3] = 2.42
• RNQKGEQVFRLAFRSGALDLDSCS [MYORG] = 2.42
• WEISDDYPSLQAMGWFNNEVGSMK [CRYBA1] = 3.19

Need protein stability index, item GNTIALFFRSLLPNYTMEGERPEE [TCF25]
2.17

====

experiment: protein stability index of a GFP-peptide fusion (GPS, HEK-293T) (PSI 1-6); higher = more stable; details: treatment: DMSO; c terminus: a fixed tail appended
# maps each entry to its protein stability index
Format: numeric value only, no unit, no commentary.

- LFAFMLVYPKEFHLNRGNHEDHMV [PPEF2]: 3.03
- FFYTAATNNPRFDKMEGNPICVQI [CRY1]: 2.92

Moving on to the next sequence.
What value of measured protein stability index is listed for TLVQREEPLRILSKYHRFISFTLY [CDS2] ?
2.95

====

test: protein stability index of a GFP-peptide fusion (GPS, HEK-293T) (PSI 1-6); higher = more stable; conditions: treatment: DMSO; c terminus: a fixed tail appended
PROPERTY LABEL: protein stability index
Answer field: number only, no words.

Previously resolved entries follow.
- KLKLVALHKQVLMGPYNPDTCPEV [ACBD3]: 2.38
- IRRFLSAFHEPQVGLIQAAQQLLC [DFFB]: 2.18
- VVKLLVSHGANVNHTTVTNSTPLR [FEM1B]: 2.25
- FTGKAEMGGPFSYVYFFCTVPEIL [TMEM106C]: 2.72
- CQECGKTFRVSSDLIKHQRIHTEE [ZNF75A]: 5.26
- IVTTVTTVQSRPRIDGKLDSPSRS [C2CD2L]: 3.4

Would you mind telling me what protein stability index value was observed for AGREVFDYSHRQKEQDVEKELRDG [NFE2L1] ?
4.99

Requested read-out: protein stability index. Entry: AHAVLGQHSHVVRYFSAWAEDDHM [WEE1]
3.55

If you can, please state the reported protein stability index value of `MAALSRALGPLRTPAPPLWIGLFL` .
2.35

Return reported protein stability index; argument: VRELRIAFREFDRDRDGRITVAEL [CABP4]
2.7

Look up protein stability index for this sequence: APCRSAQASVSCALEALEPFWEVL [HDAC6]
3.32

Dear colleague, I am looking for the recorded protein stability index of the following sequence: RLRLQRTGGLGGERERQPCGDGNT [SOAT2]
4.59

I have this sequence here, AYHDPMLKLSIMSEEELTHIFGDL [NET1] , and I need its recorded protein stability index.
3.28

What does the record list as protein stability index for TPQEPWPGPTAPSPTSRPPWAVDP [PDLIM7] ?
4.19

Could you share which protein stability index value was measured for QLIGSSNLFVMQVEMDIYTALKKW [GMCL1] ?
2.57

Quick one: protein stability index of MAAAEPSPRRVGFVGAGRMAGAIA [PYCR3] ?
2.97

====

experiment: protein stability index of a GFP-peptide fusion (GPS, HEK-293T) (PSI 1-6); higher = more stable; details: treatment: DMSO; c terminus: a fixed tail appended
Measured protein stability index accompanies every entry in the list below.

Some sequences with known protein stability index results, for comparison:
* KLNLPDYHKIIKNPMDMGTIKKRL [BRD3] | 2.41
* KSNFRVQLFEDPTVDKEVEIRKKV [MNAT1] | 4.65
* TEIAEQEGNQKGEQATSLAILRVI [KCNA1] | 3.75
* HQLVMEGYNWCHDRNVVTIFSAPN [PPP2CA] | 2.51

Which protein stability index is reported for this sequence? LTNIWMARTCAKQNINAPAPATTS [C22orf31]
2.51

Consider the sequence ARYAQQKHRIRRVLIVDWDVHHGQ [HDAC6] and give its measured protein stability index.
2.33

Looking for the measured protein stability index of LTDDDVVDWDEEYPPQMGEEYSQI [BTBD10] , can you help?
5.15

Record request: protein stability index value, item SRLQLLGATCMFVASKMKETIPLT [CCND1]
2.69

Param item = VPLWGQLLLFLVFVIVLFFIYHFM [EMD] ; retrieve measured protein stability index.
2.41

For the sequence APANVAKIQLRLAGQKRKHSEGRV [LOXL2] , what protein stability index is on record?
3.88

Need protein stability index, item GMSLAKELIFSARVLDGKEAKAVG [AUH]
3.45

Entry under review: TVVPLDDATQEYKEKLQKCLEPLE [TRIM39] . Reported protein stability index?
5.27

Quick check: protein stability index of TVEDLFYNIATRRKALKNPSEEYG [MLH1] ?
3.02

Give its protein stability index value. Item: EGVAGKSGLEKEVQRLTSRAARDY [FCHSD1]
4.69

Suppose we examine the sequence LPGNHSTSQEIFRQRFRHLRYQET [ZNF232] ; what protein stability index value has been reported?
3.13

Which protein stability index value is on record for RQTVPPLTVRLHTQSVSECITEDG [PWWP2B] ?
4.94

I'd like to know its protein stability index. The sequence in question is GELPNHPKPAGGAIPTKKSLPSPS [FBF1]
5.2

// lookup protein stability index for AYGNRTECRNPQELESIRQDRDAL [FEM1B]
4.71
